B1: tRNA (parent)
chain: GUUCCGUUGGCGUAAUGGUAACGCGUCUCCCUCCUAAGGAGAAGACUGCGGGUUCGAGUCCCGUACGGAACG

# Variants of: B1
# measurementDescription: yeast fitness relative to wild type (ratio to wild type); higher = fitter; tRNA-Arg(CCU), competitive growth, 37 C, YPD
Variants at the floor of the assay were thinned out.
Reported yeast fitness values for a set of variants

A selection of reference data follows.
{"sequenceData": "GUUCCGUUGGCGUAAUGGUAACGCGUCUCCGUCCUAUGCAGCAGACUGCGGGUUCGAGUCCCGUACGGAACG [C31G A37U G39C A42C]", "yeast fitness": "≤ 0.5"}
{"sequenceData": "GUUCCGUUGGCCUAAUGGUAACGCGUCUCCUUCCUAAGGAGAAGACUGCGGGUUCGAGUCCCGUCCGGUACG [G12C C31U A65C A69U]", "yeast fitness": "≤ 0.5"}
{"sequenceData": "GGUCCGUUGCCGUAAUGGUAACGCGUCUCCCUCCGAAGGAGAAGAUUGCGGGUUCGAGUCCCGUCCCGAACG [U2G G10C U35G C46U A65C G67C]", "yeast fitness": "≤ 0.5"}
{"sequenceData": "GUUCCGUUGGCGUGAUGGUAACGCGUCUCCCUCCUAAGGAGAAGGCUGCAGGUUCGAGUCCCGUACGGAACG [A14G A45G G50A]", "yeast fitness": "≤ 0.5"}
{"sequenceData": "GUUCCGUUGGCGUAAUGGUAACGCGUCUCCCUCCUUAGGAGAAGACUGCGGGUUCGAGUCCCGUAUGGAACG [A36U C66U]", "yeast fitness": 0.686}
{"sequenceData": "GUUCUGUUGGCGUAAUGGUAAUGCGUUUCCCUUCUAAGGAGAAGACUGCGGGUUCGAGUCCCGUACGGAACG [C5U C22U C27U C33U]", "yeast fitness": "≤ 0.5"}

Endpoint output: yeast fitness of GUCCCGUUGUCGUAAUGGUAACGCGCCUCCCUCCUAAGGAGUAGACUGCGGGUUCGAGUCCCGUACGGAACG [U3C G10U U26C A42U] . Value? ≤ 0.5

Endpoint output: yeast fitness of GUUCCGUCGGCGUAACGGUCACGGGUCUCCCUCCUAAGGAGAAGACUGCGGGUUAGAGUCCCGUACGGAACG [U8C U16C A20C C24G C55A] . Value? 0.729

Endpoint output: yeast fitness of GUCCCGUUGGCGCAAUGGUAACGUGUCUCCCUCCUAAGGAGAAGACUGCGGAUUCGAGUCCCGUACGUAACG [U3C U13C C24U G52A G68U] . Value? ≤ 0.5

Endpoint output: yeast fitness of GUUCCGUUGGCGUAAUGGUAACGUGUCUCCCUCCUAAAGAGAAGACUGCGGGUUCGAGUCCCGUACGGAACG [C24U G38A] . Value? 0.819

Endpoint output: yeast fitness of GUUCCGUUGGGGUAAUGGUAACGCGUCUCCCUCCUAAGGAGAAGACUGCGGGUUCGAAUCCCGUACGGAGCG [C11G G58A A70G] . Value? 0.659

Endpoint output: yeast fitness of GUUCCGUUGGCGGAAUCGUAACGCGUCUCCUUCCUAAGGAGAAGACUGCGGGUUCGAGUCCCGUACGGAACG [U13G G17C C31U] . Value? ≤ 0.5

Endpoint output: yeast fitness of GUUCCGUUGGCGUAGUGGUAACGCGUCUCCCUCUUAAGGUGAAGACUGCGGGUUCGAGUCCCGUACGGCACG [A15G C34U A40U A69C] . Value? ≤ 0.5

Endpoint output: yeast fitness of GUUCCGUUGGCGUAAUGAUUACGCGUCUCCCUCCUAAGGAGAAGACUGCGGGUUCGAGUCCCGUACGGAACG [G18A A20U] . Value? 0.721

Endpoint output: yeast fitness of GUUCCGAUGGCGUAACGGUAACGGGUCUCGCUCCUUAGGAGAAGACUGCGGGUUCGAGUCCCGUACGGAACG [U7A U16C C24G C30G A36U] . Value? ≤ 0.5
